Target: recombinant human MAO-A (monoamine oxidase-A) (Homo sapiens)
Construct: purchased Sigma-Aldrich
Sequence (P21397 1-527): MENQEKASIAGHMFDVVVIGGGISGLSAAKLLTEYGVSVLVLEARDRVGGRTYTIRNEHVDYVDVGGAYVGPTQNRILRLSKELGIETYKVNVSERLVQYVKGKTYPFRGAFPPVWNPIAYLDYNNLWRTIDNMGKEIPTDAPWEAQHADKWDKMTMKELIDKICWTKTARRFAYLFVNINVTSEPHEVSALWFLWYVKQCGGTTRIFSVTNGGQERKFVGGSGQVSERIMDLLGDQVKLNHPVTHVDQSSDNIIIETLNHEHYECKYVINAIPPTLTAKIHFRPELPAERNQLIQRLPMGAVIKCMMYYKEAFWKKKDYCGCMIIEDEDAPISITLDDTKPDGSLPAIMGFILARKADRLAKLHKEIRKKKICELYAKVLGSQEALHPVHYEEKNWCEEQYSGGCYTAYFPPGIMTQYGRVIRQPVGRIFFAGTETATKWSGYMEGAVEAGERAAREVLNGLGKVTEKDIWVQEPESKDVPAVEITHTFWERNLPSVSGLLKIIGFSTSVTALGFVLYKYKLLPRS
Test: Activity on recombinant human MAO-A, Amplex Red method, 0.5 mM tyramine substrate
Type: biochemical
Conditions: 0.5 mM tyramine substrate, read-out: Inhibitory Activity (IC50, nM) MAO-A
Structures can show the parent of a compound that is named as a salt.
# key: entry, value: IC50

Here are 2 compounds together with their reported answers.
compound=Cn1cncc1C#Cc1cccc(-n2cnn(C/C(=C/F)CN)c2=O)n1 system_under_test="recombinant human MAO-A (monoamine oxidase-A) (Homo sapiens)" quantity_kind=IC50 obs_value="> 100000 nM"
compound="CN1CNc2cc(/C=C/c3cccc(-n4cnn(C/C(=C/F)CN)c4=O)n3)cnc21 [Example 240, hydrochloride]" system_under_test="recombinant human MAO-A (monoamine oxidase-A) (Homo sapiens)" quantity_kind=IC50 obs_value="> 100000 nM"

Short answer for Cc1ccc(-c2ccc3c(c2)NC(=O)CO3)nc1-n1cnn(C/C(=C/F)CN)c1=O [Example 216, hydrochloride] : IC50 was > 100000 nM

Short answer for NC/C(=C\F)Cn1ncn(-c2cnc(-c3ccc(-c4nc[nH]n4)cc3)cn2)c1=O : IC50 was > 100000 nM

Short answer for NC/C(=C\F)Cn1ncn(-c2cccc(-c3ccc(N4CCOCC4)nc3)n2)c1=O : IC50 was > 100000 nM

Short answer for Cc1cc(-c2ccc3c(c2)NC(=O)C3)cnc1-n1cnn(C/C(=C/F)CN)c1=O : IC50 was > 10000 nM

Short answer for NC/C(=C/F)Cn1ncn(-c2ncc(-c3ccc4nonc4c3)s2)c1=O [Example 234, hydrochloride] : IC50 was < 100 nM

Where do these numbers come from? They come from patent US11492335B2.
